tested on: A375 pERK; experiment: Cellular assay monitoring phosphorylation of ERK (HTRF phospho-ERK Thr202/Tyr204) in A-375 cells; format: cell-based; settings: Homo sapiens, melanoma derived cell line A-375 (BRAF V600 activating mutation), 1 hour incubation with compound
Provide the reported IC50 of each item.

Record O=P1(c2ccncc2Nc2ccc(Br)cc2F)CCCC1 . Reported IC50: 100 to 1000 nM

Record CP(C)(=O)c1ccncc1Nc1ccc(C2CC2)cc1F . Reported IC50: 10 to 100 nM

Record C#Cc1ccc(Nc2cnccc2[P@@](C)(=O)CC)c(F)c1 (single isomer, unassigned) . Reported IC50: 100 to 1000 nM

Record CC[P@](C)(=O)c1ccncc1Nc1ccc(I)cc1F (single isomer, unassigned) . Reported IC50: 10 to 100 nM

Record Cc1cncc(Nc2ccc(I)cc2F)c1P(C)(C)=O . Reported IC50: > 10 nM

Record CP(C)(=O)c1cc(F)ncc1Nc1ccc(I)cc1F . Reported IC50: 100 to 1000 nM

Record CP(C)(=O)c1ccnc(F)c1Nc1ccc(I)cc1F . Reported IC50: 10 to 100 nM

Record CP(C)(=O)c1ccncc1Nc1ccc(I)c(F)c1F . Reported IC50: 10 to 100 nM

Record CP(C)(=O)c1c(Cl)cncc1Nc1ccc(Br)cc1F . Reported IC50: 10 to 100 nM

* * *

Provide the reported pIC50 of each item.
tested on: A375 pERK; experiment: Cellular assay monitoring phosphorylation of ERK (HTRF phospho-ERK Thr202/Tyr204) in A-375 cells; type: cell-based; conditions: Homo sapiens, melanoma derived cell line A-375 (BRAF V600 activating mutation), 1 hour incubation with compound
pIC50: −log10 of the molar value.

Record CC[P@@](C)(=O)c1ccncc1Nc1ccc(Br)cc1F (single isomer, unassigned) [Example 16] ; system A375 pERK; pIC50 = 6.00 to 7.00

Record CP(C)(=O)c1c(Cl)cncc1Nc1ccc(I)cc1F [Example 13] ; system A375 pERK; pIC50 = < 8.00

Record CP(C)(=O)c1ccc(F)c(F)c1Nc1ccc(I)cc1F [Example 4] ; system A375 pERK; pIC50 = ≥ 6.00

* * *

tested on: A375 pERK; assay: Cellular assay monitoring phosphorylation of ERK (HTRF phospho-ERK Thr202/Tyr204) in A-375 cells; format: cell-based; settings: Homo sapiens, melanoma derived cell line A-375 (BRAF V600 activating mutation), 1 hour incubation with compound
pIC50: −log10 of the molar value.
Provide the reported pIC50 of each item.

Record O=P1(c2ccncc2Nc2ccc(I)cc2F)CCCC1 . Reported pIC50: 7.00 to 8.00

Record CCP(=O)(CC)c1ccncc1Nc1ccc(I)cc1F . Reported pIC50: 7.00 to 8.00

Record C#Cc1ccc(Nc2cnccc2[P@](C)(=O)CC)c(F)c1 (single isomer, unassigned) . Reported pIC50: 6.00 to 7.00

Record CP(C)(=O)c1ccncc1Nc1ccc(I)cc1F . Reported pIC50: < 8.00

Record CC[P@](C)(=O)c1ccncc1Nc1ccc(Br)cc1F (single isomer, unassigned) . Reported pIC50: 6.00 to 7.00

Record CP(C)(=O)c1c(Cl)cncc1Nc1ccc(Br)cc1Cl . Reported pIC50: 6.00 to 7.00

Record CC[P@@](C)(=O)c1ccncc1Nc1ccc(I)cc1F (single isomer, unassigned) . Reported pIC50: 7.00 to 8.00

Record CP(C)(=O)c1ccncc1Nc1ccc(Br)cc1Cl . Reported pIC50: 6.00 to 7.00

Record C#Cc1ccc(Nc2cncc(F)c2P(C)(C)=O)c(F)c1 . Reported pIC50: 7.00 to 8.00

Record C#Cc1ccc(Nc2cnccc2P(=O)(CC)CC)c(F)c1 . Reported pIC50: 6.00 to 7.00

Record CP(C)(=O)c1c(Cl)cncc1Nc1ccc(C2CC2)cc1F . Reported pIC50: 7.00 to 8.00

Record C#Cc1ccc(Nc2cnccc2P(C)(C)=O)c(F)c1 . Reported pIC50: 7.00 to 8.00

Record CP(C)(=O)c1c(F)cncc1Nc1ccc(Br)cc1Cl . Reported pIC50: < 8.00

Record CCP(=O)(CC)c1ccncc1Nc1ccc(Br)cc1F . Reported pIC50: 6.00 to 7.00

Record CCP(C)(=O)c1ccncc1Nc1ccc(I)cc1F (centres unmarked) . Reported pIC50: 7.00 to 8.00

Record CP(C)(=O)c1ccc(F)cc1Nc1ccc(I)cc1F . Reported pIC50: ≥ 6.00

Record C#Cc1ccc(Nc2cnccc2P2(=O)CCCC2)c(F)c1 . Reported pIC50: 6.00 to 7.00

Record CP(C)(=O)c1ccncc1Nc1ccc(I)cc1 . Reported pIC50: 7.00 to 8.00

Record CP(C)(=O)c1ccncc1Nc1ccc(Br)cc1F . Reported pIC50: 6.00 to 7.00

Record CP(C)(=O)c1c(F)cncc1Nc1ccc(I)cc1F . Reported pIC50: < 8.00
